Item-by-item account of EC50
Molecular target: Go (Bos taurus)
Construct: proteins were extracted from bovine cerebral cortical membranes; from tissue; host or cells: bovine brain (cerebral cortical membranes)
Sequence (P08239 2-354 limits assumed): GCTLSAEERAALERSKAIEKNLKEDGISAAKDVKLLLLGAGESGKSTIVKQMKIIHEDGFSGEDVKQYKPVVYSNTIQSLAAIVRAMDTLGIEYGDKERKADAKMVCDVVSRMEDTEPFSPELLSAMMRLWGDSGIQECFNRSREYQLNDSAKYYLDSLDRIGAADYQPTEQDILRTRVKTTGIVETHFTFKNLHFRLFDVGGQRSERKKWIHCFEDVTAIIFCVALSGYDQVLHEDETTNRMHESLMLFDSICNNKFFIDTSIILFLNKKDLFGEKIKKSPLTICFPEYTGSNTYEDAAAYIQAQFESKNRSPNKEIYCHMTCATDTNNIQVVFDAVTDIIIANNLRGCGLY
Sequence (P62871 2-340 partner limits assumed): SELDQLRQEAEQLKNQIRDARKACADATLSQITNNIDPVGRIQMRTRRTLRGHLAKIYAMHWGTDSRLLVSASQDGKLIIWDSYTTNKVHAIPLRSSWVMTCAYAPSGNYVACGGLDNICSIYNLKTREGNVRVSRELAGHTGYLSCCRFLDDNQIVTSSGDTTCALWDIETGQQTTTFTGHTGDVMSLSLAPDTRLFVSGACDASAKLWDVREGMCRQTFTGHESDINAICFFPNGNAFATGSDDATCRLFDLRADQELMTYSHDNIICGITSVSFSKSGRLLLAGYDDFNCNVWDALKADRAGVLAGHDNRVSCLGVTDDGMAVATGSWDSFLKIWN
Sequence (P63212 2-68 partner limits assumed): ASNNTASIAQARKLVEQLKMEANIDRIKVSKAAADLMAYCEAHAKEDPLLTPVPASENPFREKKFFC
Experiment: steady state GTPase activity of Go in phospholipid vesicles
Assay type: biochemical, bovine
Where no end group is shown, it is not given here.
measured.parameter: EC50

substance	assay.target	endpoint.result
INLKALAALARALL-NH2 [ER2]	Go (Bos taurus)	< 3 µM
CNYKALAALAKALL-NH2 [ER16]	Go (Bos taurus)	3 to 10 µM
IVYREAKEQIRKIDRVL-NH2 [ER22]	Go (Bos taurus)	30 to 100 µM
INLKALAKLAKKLL-NH2 [MAS14]	Go (Bos taurus)	10 to 30 µM
INLAALAALAKKLL-NH2 [Mas19]	Go (Bos taurus)	3 to 10 µM
INLKALAALAKKLA-NH2 [MAS04]	Go (Bos taurus)	3 to 10 µM
CISRASKSRIKKDKKEPVAIL-NH2 [ER44]	Go (Bos taurus)	< 3 µM
CISRASKSRIKKDKKIL-NH2 [ER45]	Go (Bos taurus)	< 3 µM
INYKALCALAKKIL-NH2 [ER15]	Go (Bos taurus)	30 to 100 µM
INLKALAALAAALL-NH2 [ER5]	Go (Bos taurus)	3 to 10 µM
CVYIVAKRTTKNLEIL-NH2 [ER35]	Go (Bos taurus)	10 to 30 µM
INLRALAALARALL-NH2 [ER7]	Go (Bos taurus)	< 3 µM
REHKALKTLGIIC-NH2 [ER40]	Go (Bos taurus)	> 100 µM
INLRALAALRRRLL-NH2 [ER28]	Go (Bos taurus)	< 3 µM
CIYRETENRARELAALQGSETIL-NH2 [ER33]	Go (Bos taurus)	> 100 µM
INYKALAALAKALC-NH2 [ER17]	Go (Bos taurus)	3 to 10 µM
CVYVVAKRESRGLKSGLKTDIL-NH2 [ER46]	Go (Bos taurus)	30 to 100 µM
IKWKAILDAVKKVL-NH2 [MP-A, reference compound]	Go (Bos taurus)	3 to 10 µM
INLQALAALAKALL-NH2 [ER8]	Go (Bos taurus)	3 to 10 µM
CVYIVAKRTTKNLEAGVMKEIL-NH2 [ER34]	Go (Bos taurus)	30 to 100 µM
INLKAFAALAKKLL-NH2 [MAS23]	Go (Bos taurus)	10 to 30 µM
INLKAAAALAKKLL-NH2 [MAS16]	Go (Bos taurus)	10 to 30 µM
INLKALAALKKKLL-NH2 [MAS11]	Go (Bos taurus)	10 to 30 µM
CPLSYRAKRTPRRAALM-NH2 [ER38]	Go (Bos taurus)	3 to 10 µM
INFKALAALAKKLL-NH2 [MAS22]	Go (Bos taurus)	10 to 30 µM
IQLKALAALAKALL-NH2 [ER12]	Go (Bos taurus)	3 to 10 µM
INLQALKALAKALL-NH2 [ER11]	Go (Bos taurus)	3 to 10 µM
INLKAIAAFAKKLL-NH2 [MP-T, reference compound]	Go (Bos taurus)	3 to 10 µM
INLKALAALAKNLL-NH2 [ER20]	Go (Bos taurus)	3 to 10 µM
INLRALRALARALL-NH2 [ER24]	Go (Bos taurus)	< 3 µM
INYKALAACAKKIL-NH2 [ER14]	Go (Bos taurus)	3 to 10 µM
INLRALAALAKALL-NH2 [ER6]	Go (Bos taurus)	< 3 µM
CVYREAKEQIRKIDRVL-NH2 [ER18]	Go (Bos taurus)	30 to 100 µM
INLKALAALAQALL-NH2 [ER3]	Go (Bos taurus)	10 to 30 µM
INLKKLAALAKKLL-NH2 [MAS18]	Go (Bos taurus)	10 to 30 µM
INLKALAALAKRLL-NH2 [MAS08]	Go (Bos taurus)	3 to 10 µM
CVFQVAKRQLQKIDKVL-NH2 [ER36]	Go (Bos taurus)	10 to 30 µM
IVYREAKEQIRKIL-NH2 [ER23]	Go (Bos taurus)	30 to 100 µM
INLKALAALARKLL-NH2 [MAS10]	Go (Bos taurus)	3 to 10 µM
INLKALKALAKALL-NH2 [ER10]	Go (Bos taurus)	< 3 µM
INLKALAALKKALL-NH2 [ER25]	Go (Bos taurus)	10 to 30 µM
INLQALAALAQALL-NH2 [ER9]	Go (Bos taurus)	30 to 100 µM
INAKALAALAKKLL-NH2 [MAS21]	Go (Bos taurus)	10 to 30 µM
INLAALAALAKALL-NH2 [ER4]	Go (Bos taurus)	3 to 10 µM
INLKALAALAAKLL-NH2 [Mas9]	Go (Bos taurus)	3 to 10 µM
INWRAWRAWARAWL-NH2 [ER27]	Go (Bos taurus)	< 3 µM
CVYREAKEQIRKIDR-NH2 [ER43]	Go (Bos taurus)	> 100 µM
INLKALKALAKKLL-NH2 [MAS15]	Go (Bos taurus)	10 to 30 µM
CVYVVAKRESRGLKIL-NH2 [ER47]	Go (Bos taurus)	30 to 100 µM
CLLKALAALAKALL-NH2 [ER30]	Go (Bos taurus)	3 to 10 µM
ILLKALAALAKALL-NH2 [ER21]	Go (Bos taurus)	3 to 10 µM
INLKALAAKAKKLL-NH2 [MAS13]	Go (Bos taurus)	30 to 100 µM
CIYRETENRARELAALQGSET-NH2 [ER32]	Go (Bos taurus)	> 100 µM
INLKALAAAAKKLL-NH2 [MAS12]	Go (Bos taurus)	10 to 30 µM
INLKAKAALAKKLL-NH2 [Mas17]	Go (Bos taurus)	30 to 100 µM
INLKALAALAKALL-NH2 [ER1]	Go (Bos taurus)	3 to 10 µM
INLRALAALAKKLL-NH2 [MAS20]	Go (Bos taurus)	3 to 10 µM
CVYREAKEQIRKIL-NH2 [ER19]	Go (Bos taurus)	> 100 µM
